Record form. Attribute: growth. Fill in for each entry.
- Test system: SF-539 CNS
- assay: NCI-60 one-dose screen, 48 h (100 = growth as untreated, 0 = no growth, -100 = all killed)
- details: 10 µM unless noted
The panel holds about 83,000 compounds, 20% with a hit somewhere; the sample as a whole holds those more often. Active and inactive are the calls of the source. The calls were made as follows: active = growth percent below 10; inactive = the rest.

Report measured growth on SF-539 CNS; entry: CC(=O)n1c(-c2ccc(Cl)cc2)nc2c(c1=O)C(c1ccc(Cl)cc1)c1sc3c(Cl)cccc3c1O2 (centres undefined)
-63.2% (active)

Give SF-539 CNS growth for the following molecule: "COc1ccc2[nH]c(O)c(C(=Nc3ccc(N(C)C(=O)CN4CCN(C)CC4)cc3)c3ccccc3)c2c1"
-38.9% (active)

Under SF-539 CNS, report growth for "COc1ccc(-c2nc(SCCC(C)C)nc(N/N=C\c3cccc(Cl)c3)c2C#N)cc1"
84.3% (inactive)

Send back SF-539 CNS growth of "C=C1C(=O)O[C@H]2[C@H]1CC/C(COC(=O)C(=O)c1cn(C)c3ccc(OC)cc13)=C\CC[C@@]1(C)O[C@@H]21" only.
-66.9% (active)

Each recorded value in this set is attributed to PubChem BioAssay (NCI).
